B1: library; a variant is named by its letters at N, in order (parent)
chain: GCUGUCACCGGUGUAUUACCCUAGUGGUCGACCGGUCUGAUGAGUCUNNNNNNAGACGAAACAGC

variants of: B1; experiment: normalized RNA/DNA level with ligand (relative to sTRSVctl = 100) (log10 (% of sTRSVctl)); ligand: hypoxanthine (xanthine aptamer); higher = less ribozyme self-cleavage, higher mRNA level; details: ligand concentration (+) RNA-Seq: 5 mM, HEK293T, reporter: mCherry (pCS4076), ligand present: yes
recorded.endpoint: normalized RNA/DNA level with ligand (log10)

# var, measured
data = [
    ("UAAUGC", 1.93),
    ("UCCACC", 2.02),
    ("GAUAAC", 1.92),
    ("UUGGGA", 2.02),
    ("UGCUGU", 1.95),
    ("CUCUAC", 1.97),
    ("CACCUA", 1.92),
    ("AAAGCU", 1.94),
    ("UCGCUG", 1.98),
    ("UUGCAC", 1.96),
    ("GUUGCU", 1.97),
    ("CCUCUU", 2.01),
]

Measured values drawn from the supplement of paper PMC6757056 for this set.
